Attribution: patent US20170015742A1

Exercise: state measured kon for each of the binders provided.
Molecular target: T1, Human VEGF-A 165 (human, UniProt P15692 207-395)
T1 construct: also called hVEGF165; huVEGF-A165
T1 sequence (P15692 other isoform, or with tags, fused parts or gaps limits assumed): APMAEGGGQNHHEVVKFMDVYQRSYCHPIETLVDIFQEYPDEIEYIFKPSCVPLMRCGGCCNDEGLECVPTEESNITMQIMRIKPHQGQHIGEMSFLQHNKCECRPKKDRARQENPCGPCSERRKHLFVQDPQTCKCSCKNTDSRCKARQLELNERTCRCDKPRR
Assay: Biacore SPR (Example 1.1)
Numbers only, in M⁻¹ s⁻¹.

Field: example entries. Status: answers known.
Return the recorded kon value; entry: BEW-9C2-D6 (antibody, IgG2b, V domains shown) VH: QIQLVQSGPELKKPGESVKVSCKASGYTFTNYGIHWVKQAPGQGLQYVGWINTETGRPTYADDFKGRFVFFLETSASTAYLQINNLKNEDMATYFCARPLYYGYAHYFDYWGQGVMVTVSS VL: DIQMTQSPASLSASLEEIVTITCQASQDIGNWLAWYQQKPGKSPQLLIYGATSLADGVPSRFSGSRSGTQYSLKISRLQVEDIGIYYCQQASSVTYTFGAGTKLELK
5.5e+06

Return the recorded kon value; entry: BEW-9D2-E8 (antibody, IgG2a, V domains shown) VH: QIQLVQSGPELKKPGESVKISCKASGYTFTNYGMYWVKLAPGQGLQYLGWINTETGKPTYADDFKGRFVFFLETSASTAYLQINNLRNEDMATYFCARPSDYYDGFWFAYWGQGTLVTVSS VL: DTVLTQSPALTVSPGERVSISCRASEWVNSYMHWYQQNPGQQPKLLIYKASNLASGVPARFSGSGSGTDFTLTLDPVEADDTATYFCQQSWNDPLTFGSGTKLEIK
7e+06

Consider the additional binder presented here.
Return the recorded kon value; entry: BEW-1B10-B9-C3 (antibody, IgG2a, V domains shown) VH: EVQLVESGGGLVQPGRSLKLSCAASGFSFSKYDMAWFRQTPTKGLEWVASITTSGVGTYYRDSVKGRFTVSRDNAKSTLYLQMDSLRSEDTATYYCARGYGAMDAWGQGTSVTVSS VL: DIQMTQSPASLSASLEEIVTITCKASQDIDDYLSWYQQKPGKSPQLVIYAATRLADGVPSRFSGSGSGTQYSLKISRLQVDDSGIYYCLQSSSTPWTFGGGTNLELK
4.4e+06
